Target: RORγt (Homo sapiens)
Sequence (P51449 1-497 isoform P51449-2, species assumed): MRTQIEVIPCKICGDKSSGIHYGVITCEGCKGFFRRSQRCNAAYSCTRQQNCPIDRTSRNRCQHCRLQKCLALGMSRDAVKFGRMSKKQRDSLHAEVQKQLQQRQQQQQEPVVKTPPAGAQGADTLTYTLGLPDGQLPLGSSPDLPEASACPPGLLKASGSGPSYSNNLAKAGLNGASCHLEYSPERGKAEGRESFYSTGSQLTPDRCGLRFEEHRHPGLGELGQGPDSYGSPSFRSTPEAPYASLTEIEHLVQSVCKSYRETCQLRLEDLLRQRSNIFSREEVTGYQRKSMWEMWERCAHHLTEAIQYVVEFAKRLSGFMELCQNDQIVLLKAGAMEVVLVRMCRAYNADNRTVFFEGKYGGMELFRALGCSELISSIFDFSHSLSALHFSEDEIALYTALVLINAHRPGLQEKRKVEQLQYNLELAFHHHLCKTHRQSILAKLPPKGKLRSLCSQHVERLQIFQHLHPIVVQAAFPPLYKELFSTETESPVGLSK
Test: Cofactor recruitment test (Alpha Screen, biotinylated SRC-1 peptide)
Type: biochemical
Details: read-out: signal value inhibitory rate (%) at test compound 1 μM

# molecule, units.of.measure, inhibition at 1 µM
rows = [
    ("CC(C)n1c(=O)n(CC2CC2(F)F)c(=O)c2cc(NC(=O)N3CCOC(C(=O)Nc4cc(Cl)c(C#N)cc4F)C3)c(F)cc21 (mixture of isomers) [Example 348]", "%", 107),
    ("CC(C)n1c(=O)n(CC2CC2)c(=O)c2cc(NC(=O)N3CCO[C@@H](C(=O)Nc4ccc(C#N)c(F)c4)C3)ccc21 [Example 102]", "%", 102),
    ("CC(C)n1c(=O)n(CC2CC2(F)F)c(=O)c2cc(NC(=O)N3CCCC(n4cnc5cc(C#N)ccc5c4=O)C3)c(F)cc21 (mixture of isomers) [Example 360]", "%", 105),
    ("CC(C)n1c(=O)n(CC2CC2)c(=O)c2cc(NC(=O)N3CCC[C@@H](NC(=O)c4ccc(Cl)cc4)C3)ccc21 [Example 247]", "%", 107),
    ("Cc1nc2cc(C(=O)N[C@@H]3CCCN(C(=O)Nc4cc5c(=O)n(CC6CC6)c(=O)n(C(C)C)c5cc4F)C3)ccc2o1 [Example 296]", "%", 108),
    ("COC(=O)c1cccc(C(=O)NC2CCCN(C(=O)Nc3ccc4c(c3)c(=O)n(CC3CC3)c(=O)n4C(C)C)C2)c1 (centres unmarked) [Example 113]", "%", 109),
    ("CC(C)n1c(=O)n(CC2CC2(F)F)c(=O)c2cc(NC(=O)N3CCCC(n4cnc5cc(C#N)ccc5c4=O)C3)c(F)cc21 (single isomer, unassigned) [Example 367]", "%", 105),
    ("CC(C)n1c(=O)n(CC2CC2)c(=O)c2cc(NC(=O)N3CCO[C@@H](C(=O)Nc4ccc(C#N)c(Cl)c4)C3)c(F)cc21 [Example 235]", "%", 109),
    ("COC(=O)NCc1ccc(C(=O)N[C@@H]2CCCN(C(=O)Nc3cc4c(=O)n(CC5CC5)c(=O)n(C(C)C)c4cc3F)C2)cc1 [Example 321]", "%", 105),
    ("CC(C)n1c(=O)n(CC2CC2)c(=O)c2cc(NC(=O)N3CCO[C@@H](C(=O)Nc4ccc(C#N)c(F)c4)C3)c(F)cc21 [Example 172]", "%", 111),
    ("CC(C)n1c(=O)n(CC2CC2)c(=O)c2cc(NC(=O)N3CCCC(NC(=O)c4ccc(C#N)nc4)C3)ccc21 (centres unmarked) [Example 157]", "%", 109),
    ("CC(C)n1c(=O)n(CC2CC(F)(F)C2)c(=O)c2cc(NC(=O)N3CCC[C@@H](n4cnc5cc(C#N)ccc5c4=O)C3)c(F)cc21 [Example 363]", "%", 106),
    ("CCNC(=O)OCc1ccc(C(=O)N[C@@H]2CCCN(C(=O)Nc3cc4c(=O)n(CC5CC5)c(=O)n(C(C)C)c4cc3F)C2)cc1 [Example 315]", "%", 94),
    ("CC(C)n1c(=O)n(CC2CC2)c(=O)c2cc(NC(=O)N3CCC[C@@H](NC(=O)c4ccc(C#N)nc4)C3)ccc21 [Example 223]", "%", 111),
]
